# study target: T1, human lambda-5 (on the pre-BCR-expressing human pre-B cell line NALM-6) (human, UniProt P15814 38-213)
# T1 construct: On NALM-6 cells lambda-5 stands in the pre-BCR together with VpreB and the mu heavy chain; also called IGLL1; lambda-5 subunit of the SLC of human pre-BCR
# T1 sequence (P15814 38-213 limits assumed): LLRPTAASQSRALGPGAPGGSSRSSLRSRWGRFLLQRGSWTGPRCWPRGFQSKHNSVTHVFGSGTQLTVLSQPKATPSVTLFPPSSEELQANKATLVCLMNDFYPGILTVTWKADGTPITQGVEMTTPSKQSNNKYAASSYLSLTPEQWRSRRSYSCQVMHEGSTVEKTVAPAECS
# experimental protocol: flow cytometry, saturation binding of recombinant chimeric mAb to NALM-6 cells
Kindly supply the reported EC50 values for the records listed here.

Give EC50 for each of the items listed below.
1. lambda-5 antibody 4-17G9 (recombinant mouse-human chimeric IgG1/kappa) (antibody, V domains shown, also called mAb 4-17G9) VH: EVQLQQSGTVLARPGASVKMSCQASGYTFTNYWMHWVKQRPGQGLEWIGAIYPGNSDTSYNQNFKGKAELTAVTSATTAYMELSSLTDEDSAVYYCTRADYDGTPFDYWGQGTTLTVSS VL: DIVMTQSPLTLSVTIGHPASISCKSSQSLLDSDGETYLSWLLQRPGQSPKRLIYLVSKLDSGVPDRFTGSGSGTDFTLKISRVEAEDLGVYYCWQGTHFPLTFGAGTKVELKR
2. lambda-5 antibody 4-7A6 (recombinant mouse-human chimeric IgG1/kappa) (antibody, V domains shown, also called mAb 4-7A6) VH: EVQLQQSGTVLARPGTSVKMSCKASGYTFTSYWMHWVKQRPGQGLEWIGAIYLGNTDTSYNQKFKGKAKLTAVTSASSAYMELSSLTNEDSAVYYCTRADYDGTPFDYWGQGTTLTVSS VL: DVVMTQNALTLSVTIGHPASISCRSSQSLLDSDGETYLSWLLQRPGQSPKRLIYLVSKLDSGVPDRFTGSGSGTDFTLKISRVEAEDLGVYYCWQGTHFPLTFGAGTKLELKR
3. lambda-5 antibody 4-6D12 (recombinant mouse-human chimeric IgG1/kappa) (antibody, V domains shown, also called mAb 4-6D12) VH: EVQLQQSGTVLARPGASVKMSCKASGYTFTNYWMHWVKQRPGQGLEWIGAIYPGNSDTSYNQKFKGKAKLTAVTSASTAYMELSSLTNEDSAVYFCTRADYDGTPFDYWGQGTTLTVSS VL: DILMTQSPLTLSVTIGHPASISCKSSQSLLDSDGETYLSWLLQRPGQSPERLIYLVSKLDSGVPDRFTGSGSGTDFTLKISRVEAEDLGVYYCWQGTHFPLTFGAGTKLELKR
4. lambda-5 antibody 4-12G1 (recombinant mouse-human chimeric IgG1/kappa) (antibody, V domains shown, also called mAb 4-12G1) VH: EVQLEESGAELVRSGASVKLSCTASGFNIKDYYLHWVKQRPEQGLEWIGWIDPENGATDYAPKFQGKASMTADTSSNTAYLQLSSLTFEDTAVYYCNEGYYDYDADSAMDYWGQGTSVTVSS VL: DVLMTQTPLSLPVSLGDQASISCRSSQSLVHSDGITYLHWYLQKPGQSPKLLIYKVSNRFSGVPDRFSGSGSGTDFTLKISRVEAEDLGVYFCSQSARVPWTFGGGTKLEIKR

1: < 30 nM; 2: < 30 nM; 3: < 30 nM; 4: < 30 nM
